- targetUnderTest: human recombinant GST cleaved CSNK1D (Homo sapiens)
- Construct: GST (cleaved yes)
- Sequence (P48730 whole entry): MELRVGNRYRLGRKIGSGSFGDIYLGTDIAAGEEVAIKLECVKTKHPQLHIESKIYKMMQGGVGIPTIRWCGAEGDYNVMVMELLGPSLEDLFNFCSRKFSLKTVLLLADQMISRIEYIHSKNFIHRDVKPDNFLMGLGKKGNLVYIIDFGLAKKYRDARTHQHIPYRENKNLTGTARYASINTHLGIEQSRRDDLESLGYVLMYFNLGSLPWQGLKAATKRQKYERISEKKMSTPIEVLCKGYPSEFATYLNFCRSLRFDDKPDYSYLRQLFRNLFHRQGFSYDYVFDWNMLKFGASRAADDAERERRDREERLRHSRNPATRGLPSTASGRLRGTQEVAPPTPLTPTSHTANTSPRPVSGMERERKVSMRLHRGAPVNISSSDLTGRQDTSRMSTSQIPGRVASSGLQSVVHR
- method: Purified Enzyme Assay (ADP-Glo CSNK1D Kinase Assay)
- conditionInfo: 2 nM CSNK1D; peptide substrate 150 μM; ATP 20 μM; 45 minutes at room temperature

compound: CCC(=O)Nc1cc(-c2c(-c3ccc(F)cn3)nn3c2OCCC3C)ccn1 (centres unmarked) [Example 445]
targetUnderTest: human recombinant GST cleaved CSNK1D (Homo sapiens)
outputUnit: nM
IC50: 10

compound: C[C@@H]1C[C@H](C)Oc2c(-c3ccnc4[nH]ncc34)c(-c3ccc(F)cn3)nn21 (single isomer, unassigned) [Example 202]
targetUnderTest: human recombinant GST cleaved CSNK1D (Homo sapiens)
outputUnit: nM
IC50: 10

compound: CC[C@@H]1Cn2nc(-c3ccc(F)cn3)c(-c3ccnc4[nH]ncc34)c2CO1 (single isomer, unassigned) [Example 95]
targetUnderTest: human recombinant GST cleaved CSNK1D (Homo sapiens)
outputUnit: nM
IC50: 19

compound: Cc1cc(-c2c(-c3ccc(F)cc3)nn3c2CC[C@@H]3C)c2cn[nH]c2n1 [Example 17]
targetUnderTest: human recombinant GST cleaved CSNK1D (Homo sapiens)
outputUnit: nM
IC50: 1

compound: Fc1ccc(-c2nn3c(c2-c2ccn4nccc4c2)C[C@H](F)C3)cc1 [Example 226]
targetUnderTest: human recombinant GST cleaved CSNK1D (Homo sapiens)
outputUnit: nM
IC50: 10

compound: Cc1cc(-c2c(-c3ccc(F)cc3)nn3c2OCC2(C3)CC2(F)F)c2cn[nH]c2n1 (single isomer, unassigned) [Example 474]
targetUnderTest: human recombinant GST cleaved CSNK1D (Homo sapiens)
outputUnit: nM
IC50: 1

compound: Cc1n[nH]c2nc(C(F)F)cc(-c3c(-c4ccc(F)cc4)nn4c3COC(C(F)(F)F)C4)c12 (single isomer, unassigned) [Example 374]
targetUnderTest: human recombinant GST cleaved CSNK1D (Homo sapiens)
outputUnit: nM
IC50: 293

compound: Cc1nc2cc(-c3c(-c4ccc(F)cn4)nn4c3COC(C)(C)C4)ccn2n1 [Example 386]
targetUnderTest: human recombinant GST cleaved CSNK1D (Homo sapiens)
outputUnit: nM
IC50: 162

Source: patent US20230339970A1
